Reported GI50 values for a set of molecules
Test system: HUVEC
testDetails: cells
details: Homo sapiens, 72 h
Description: Antiproliferative activity against HUVEC after 72 hrs by MTT assay
Express it in µM; write the number only.

Worked cases, GI50 given:
{"columns": ["smilesEntry", "observedMeasurement"],
 "data": [
  ["CNC(=O)c1cc(O[C@H]2CC[C@H](NC(=O)Nc3ccc(Cl)c(C(F)(F)F)c3)CC2)ccn1", 11],
  ["CNC(=O)c1cc(O[C@H]2CC[C@@H](NC(=O)Nc3ccc(Cl)c(C(F)(F)F)c3)CC2)ccn1", 10],
  ["CNC(=O)c1cccc(O[C@H]2CC[C@H](NC(=O)Nc3ccc(Cl)c(C(F)(F)F)c3)CC2)c1", 11],
  ["CNC(=O)c1ccc(O[C@H]2CC[C@H](NC(=O)Nc3ccc(Cl)c(C(F)(F)F)c3)CC2)cn1", 10.5],
  ["O=C(Nc1ccc(Cl)c(C(F)(F)F)c1)N[C@H]1CC[C@H](Oc2cccc(C(=O)O)c2)CC1", 10.5]
]}

Retrieve GI50 measured for "CNC(=O)c1cc(Oc2ccc(NC(=O)NC34CC5CC(CC(C5)C3)C4)cc2)ccn1" and print it.
25

Retrieve GI50 measured for "O=C(Nc1ccc(Cl)c(C(F)(F)F)c1)N[C@H]1CC[C@H](Oc2ccc(C(=O)O)cc2)CC1" and print it.
25

----------
Reported IC50 values for a set of compounds
targetOfAssay: RAF proto-oncogene serine/threonine-protein kinase (Homo sapiens)
Sequence (P04049 whole entry): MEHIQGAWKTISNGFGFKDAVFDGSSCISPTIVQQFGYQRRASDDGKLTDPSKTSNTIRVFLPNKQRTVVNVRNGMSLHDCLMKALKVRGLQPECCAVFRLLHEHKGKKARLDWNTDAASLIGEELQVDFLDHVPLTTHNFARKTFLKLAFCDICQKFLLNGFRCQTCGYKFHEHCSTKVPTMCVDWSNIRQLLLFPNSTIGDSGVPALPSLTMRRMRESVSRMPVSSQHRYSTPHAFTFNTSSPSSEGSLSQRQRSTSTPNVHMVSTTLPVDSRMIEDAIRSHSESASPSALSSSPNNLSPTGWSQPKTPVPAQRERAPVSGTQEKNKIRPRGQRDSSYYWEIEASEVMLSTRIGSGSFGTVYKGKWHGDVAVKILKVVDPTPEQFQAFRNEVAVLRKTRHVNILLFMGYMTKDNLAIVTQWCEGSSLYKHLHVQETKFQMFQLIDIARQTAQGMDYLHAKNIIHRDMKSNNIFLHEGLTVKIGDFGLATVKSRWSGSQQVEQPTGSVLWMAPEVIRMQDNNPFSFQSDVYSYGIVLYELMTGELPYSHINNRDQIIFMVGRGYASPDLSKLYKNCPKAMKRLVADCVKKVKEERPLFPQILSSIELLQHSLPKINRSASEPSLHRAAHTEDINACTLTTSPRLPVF
testDetails: Inhibition of full length recombinant c-RAF (unknown origin) using MEK1 as substrate after 1 hr by luminescence assay
Express it in µM; write the number only.

{"columns": ["smilesEntry", "observedMeasurement"],
 "data": [
  ["CNC(=O)c1cc(Oc2ccc(NC(=O)NC34CC5CC(CC(C5)C3)C4)cc2)ccn1", 1]
]}

Continue with the compound presented below.
Retrieve IC50 measured for "CNC(=O)c1cccc(O[C@H]2CC[C@H](NC(=O)Nc3ccc(Cl)c(C(F)(F)F)c3)CC2)c1" and print it.
0.293

----------
Reported GI50 values for a set of compounds
Test system: Huh-7
testDetails: Cytotoxicity against human HuH7 cells by MTT assay
details: Homo sapiens, Huh-7
Express it in µM; write the number only.

{"columns": ["smilesEntry", "unitTag", "GI50"],
 "data": [
  ["CNC(=O)c1cc(Oc2ccc(NC(=O)NC34CC5CC(CC(C5)C3)C4)cc2)ccn1", "µM", 7]
]}

Retrieve GI50 measured for "CNC(=O)c1cc(O[C@H]2CC[C@H](NC(=O)Nc3ccc(OC(F)(F)F)cc3)CC2)ccn1" and print it.
7

Retrieve GI50 measured for "CNC(=O)c1cccc(O[C@H]2CC[C@H](NC(=O)Nc3ccc(Cl)c(C(F)(F)F)c3)CC2)c1" and print it.
7.5

----------
targetOfAssay: RAF proto-oncogene serine/threonine-protein kinase (Homo sapiens)
testDetails: Inhibition of full length recombinant c-RAF (unknown origin) using MEK1 as substrate after 1 hr by luminescence assay
pIC50: −log10 of the molar value.
measuredMetric: pIC50

{"columns": ["smilesEntry", "pIC50"],
 "data": [
  ["CNC(=O)c1ccc(O[C@H]2CC[C@H](NC(=O)Nc3ccc(OC(F)(F)F)cc3)CC2)cc1", "< 5.00"],
  ["CN(C)C(=O)c1cc(O[C@H]2CC[C@H](NC(=O)Nc3ccc(Cl)c(C(F)(F)F)c3)CC2)ccn1", "< 5.00"]
]}

Continue with the compound presented below.
Retrieve pIC50 measured for "CNC(=O)c1cc(O[C@H]2CC[C@H](NC(=O)Nc3ccc(OC(F)(F)F)cc3)CC2)ccn1" and print it.
< 5.00
